- Test system: mice
- Measurement description: Hot Plate, analgesic activity
- Assay type: in vivo
- Condition info: 50 mg/kg SC; mice
Where a name gives a salt, the structure may show the parent alone.
Hot Plate reaction time below 30 s gives not satisfied; Hot Plate reaction time at or above it gives satisfied.

See these solved cases before continuing.
>  <Molecule>
COC(=O)[C@]1(c2ccc([N+](=O)[O-])cc2)C[C@@H]1CN(C)C (relative stereo)

>  <Group>
not satisfied

$$$$
>  <Molecule>
CCOC(=O)[C@]1(c2ccccc2)C[C@@H]1CN(C)CCc1ccccc1 (relative stereo)

>  <Group>
not satisfied

$$$$
>  <Molecule>
CCOC(=O)[C@]1(c2ccc(Cl)cc2)C[C@@H]1CN(C)C (relative stereo) [Example 41, hydrochloride]

>  <Group>
satisfied

$$$$

In: Item CCOC(=O)[C@]1(c2ccc(Cl)c(Cl)c2)C[C@@H]1CN(C)C (relative stereo) with Hot Plate reaction time of 30 s or above?
Out: not satisfied

In: Queued: CCOC(=O)[C@]1(c2cccc(Cl)c2)C[C@@H]1CN(C)C (relative stereo)
Out: not satisfied
